# Protocol details: Primary qHTS for inhibitors of nuclear receptor binding SET domain protein 2 (NSD2) in an RCH-ACV wild type WT cells (2C) (AID 1645877); note: nearly all actives have a fitted effect of over 70% in size; note: potency is the fitted concentration of half-maximal effect
# Run parameters: RCH-ACV (leukaemia line) NSD2 WT (2C) viability, CellTiter-Glo, 72 h; series mostly up to 44.9 µM
# Description: Assay Provider: Jonathan D. Licht, MD University of Florida College of Medicine, Gainesville, FL Mutations in epigenetic regulators are common in relapsed pediatric acute lymphoblastic leukemia (ALL). Here, we uncovered the mechanism underlying the relapse of ALL driven by an activating mutation of the NSD2 histone methyltransferase (p.E1099K). […] Correction of this mutation restored glucocorticoid sensitivity. […]
Results filed as inconclusive are left out. Activity calls are given as the source filed them. Calls come from the whole dose curve; as a rule, active = well fitted inhibition curve with a large enough effect; inconclusive = small, poorly fitted or top-dose-only effect; inactive = no such curve, though single readings can be large or run the other way.
Test readout: Potency

1) COCCCOc1cc(C[C@@H](C[C@H](N)[C@@H](O)C[C@H](C(=O)NCC(C)(C)C(N)=O)C(C)C)C(C)C)ccc1OC    inactive
2) NC(=O)c1cccnc1    inactive
3) O=c1oc2c(O)c(O)cc3c(=O)oc4c(O)c(O)cc1c4c23    inactive
4) Cc1nnc(NS(=O)(=O)c2ccc(N)cc2)s1    inactive
5) COc1nc(N)nc2c1ncn2[C@@H]1O[C@H](CO)[C@@H](O)[C@@H]1O    6.68 µM (active)

With those in mind, consider the next compound.
Can you look up the measured Potency of CC(C)C1CCC(C(=O)N[C@H](Cc2ccccc2)C(=O)O)CC1 (stereo partly specified) for me?
inactive

====

# Assayed target: Cytochrome P450 2C19 (Homo sapiens) (UniProt P33261)
# Sequence (P33261 whole entry, looked up): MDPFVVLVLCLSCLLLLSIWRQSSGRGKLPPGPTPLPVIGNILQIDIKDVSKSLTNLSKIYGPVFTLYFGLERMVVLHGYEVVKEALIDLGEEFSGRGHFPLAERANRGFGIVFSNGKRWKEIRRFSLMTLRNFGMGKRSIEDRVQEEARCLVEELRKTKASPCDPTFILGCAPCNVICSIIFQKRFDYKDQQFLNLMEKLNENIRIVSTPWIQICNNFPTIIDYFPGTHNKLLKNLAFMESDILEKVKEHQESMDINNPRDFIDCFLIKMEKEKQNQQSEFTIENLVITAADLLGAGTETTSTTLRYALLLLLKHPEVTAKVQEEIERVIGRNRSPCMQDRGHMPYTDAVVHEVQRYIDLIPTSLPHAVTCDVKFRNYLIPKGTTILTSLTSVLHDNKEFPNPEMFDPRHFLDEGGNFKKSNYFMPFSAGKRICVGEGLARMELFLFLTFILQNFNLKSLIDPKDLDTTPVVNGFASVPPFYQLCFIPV
# Protocol details: qHTS Assay for Inhibitors and Substrates of Cytochrome P450 2C19 (AID 899); note: nearly all actives have a fitted effect of over 60% in size
# Run parameters: recombinant CYP2C19, luciferin-H EGE luminescence; series mostly up to 57.1 µM
Results filed as inconclusive are left out. The source made the active and inactive calls. Calls come from the whole dose curve; as a rule, active = well fitted inhibition curve with a large enough effect; inconclusive = small, poorly fitted or top-dose-only effect; inactive = no such curve, though single readings can be large or run the other way.
// classify into yes (1) for active, no (0) for inactive

Below, 3 molecules whose answers are already recorded.
1. NC(=O)c1cccc(N)c1    no (0)
2. CC1=CC(=O)c2ccccc2C1=O    yes (1)
3. O=c1oc2c(O)c(O)cc3c(=O)oc4c(O)c(O)cc1c4c23    yes (1)

Alright, here's another molecule for you.
Assay result, entry CCCOc1ccc(C(=O)OCCN(CC)CC)cc1N — outcome?
no (0)

====

# Protocol details: qHTS Screen of the MIPE 4.0 Collection Against Ewings Sarcoma (EW8) (AID 1259255); note: nearly all actives have a fitted effect of over 35% in size;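 for viability: 100% = DMSO-treated cells and 0% = medium-only wells without cells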
# Run parameters: EW8 Ewing sarcoma viability, CellTiter-Glo, 48 h; series mostly up to 45.8 µM
# Description: There is a large unmet medical need for treatments for Ewing sarcoma, a pediatric sarcoma. […] Using the NCATS developed oncology compound library called the Mechanism of Interrogation Plate (MIPE), four Ewing sarcoma cell lines were evaluated (TC32, TC71, RDES, EW8). Compounds, in a 12-point titration series, were incubated with cells for 48 hours and the read out was cell viability (CellTiter-Glo from Promega). […]
Records with an inconclusive call do not appear. Calls of active or inactive are those of the source. The call rests on the fitted dose curve; in most records, active means well fitted inhibition curve with a large enough effect; inconclusive means small, poorly fitted or top-dose-only effect; inactive means no such curve, though single readings can be large or run the other way.
// classify into TRUE (active), FALSE (inactive)

Below, 6 molecules whose answers are already recorded.
1. COC(=O)Nc1nc2ccc(Sc3ccccc3)cc2[nH]1    TRUE
2. CNCC[C@H](Oc1cccc2ccccc12)c1cccs1    TRUE
3. O=C(O)C1CCCN(CCC=C(c2ccccc2)c2ccccc2)C1 (stereo not given)    TRUE
4. CC(=O)[C@H]1CC[C@H]2[C@@H]3CCC4=CC(=O)CC[C@]4(C)[C@H]3CC[C@]12C    TRUE
5. C[C@@H]1CN(c2c(F)c(N)c3c(=O)c(C(=O)O)cn(C4CC4)c3c2F)C[C@H](C)N1    FALSE
6. CNNCc1ccc(C(=O)NC(C)C)cc1    FALSE

Assay result, entry CN1CCCC(n2nc(Cc3ccc(Cl)cc3)c3ccccc3c2=O)CC1 (stereo not given) — outcome?
TRUE

Assay result, entry CCn1cc(C(=O)O)c(=O)c2cc(F)c(N3CCNCC3)cc21 — outcome?
FALSE

Assay result, entry CC(C)Cn1cnc2c(N)nc3ccccc3c21 — outcome?
TRUE

Assay result, entry CC(C)(Sc1cc(C(C)(C)C)c(O)c(C(C)(C)C)c1)Sc1cc(C(C)(C)C)c(O)c(C(C)(C)C)c1 — outcome?
FALSE

====

# Protocol details: qHTS Screen of the MIPE 4.0 Collection Against Ewings Sarcoma (TC32) (AID 1259256); note: nearly all actives have a fitted effect of over 45% in size
# Run parameters: TC32 Ewing sarcoma viability, CellTiter-Glo, 48 h; series mostly up to 45.8 µM
Results filed as inconclusive are left out. Calls of active or inactive are those of the source. Calls follow the shape of the dose curve; as a rule, active = well fitted inhibition curve with a large enough effect; inconclusive = small, poorly fitted or top-dose-only effect; inactive = no such curve, though single readings can be large or run the other way.
// classify into active, inactive

Below, 5 compounds whose answers are already recorded.
1. C#CCN[C@@H]1CCc2ccccc21    inactive
2. S=P(N1CC1)(N1CC1)N1CC1    active
3. CC(C)(C#N)c1cc(Cn2cncn2)cc(C(C)(C)C#N)c1    inactive
4. COc1ncnc(NS(=O)(=O)c2ccc(N)cc2)c1OC    inactive
5. O=NN(CCCl)C(=O)NC1CCCCC1    inactive

Assay result, entry CCCCc1oc2ccc(NS(C)(=O)=O)cc2c1C(=O)c1ccc(OCCCN(CCCC)CCCC)cc1 — outcome?
active

Assay result, entry Cc1noc(NS(=O)(=O)c2ccc(N)cc2)c1C — outcome?
inactive

Assay result, entry O=P(O)(O)C(O)(Cc1cccnc1)P(=O)(O)O — outcome?
inactive

Assay result, entry O=C(O)CCn1c2c(c3ccccc31)C[C@H](NS(=O)(=O)c1ccc(F)cc1)CC2 — outcome?
inactive

Assay result, entry CN1CCN(c2c(F)cc3c(=O)c(C(=O)O)cn(CCF)c3c2F)CC1 — outcome?
inactive

Assay result, entry CCC(=O)O[C@]1(C(=O)SCF)[C@H](C)C[C@H]2[C@@H]3C[C@H](F)C4=CC(=O)C=C[C@]4(C)[C@@]3(F)[C@@H](O)C[C@@]21C — outcome?
inactive

Assay result, entry COc1ccc2cc3[n+](cc2c1OC)CCc1cc2c(cc1-3)OCO2 — outcome?
active

Assay result, entry NNC(=O)c1ccncc1 — outcome?
inactive

Assay result, entry Clc1ccccc1CN1CCc2sccc2C1 — outcome?
inactive

Assay result, entry CCCCOc1ccc(CC(=O)NO)cc1 — outcome?
active

Assay result, entry CN(Cc1cc(Br)cc(Br)c1N)C1CCCCC1 — outcome?
inactive

====

# Assayed target: Flap endonuclease 1 (Homo sapiens) (UniProt P39748)
# Sequence (P39748 whole entry, looked up): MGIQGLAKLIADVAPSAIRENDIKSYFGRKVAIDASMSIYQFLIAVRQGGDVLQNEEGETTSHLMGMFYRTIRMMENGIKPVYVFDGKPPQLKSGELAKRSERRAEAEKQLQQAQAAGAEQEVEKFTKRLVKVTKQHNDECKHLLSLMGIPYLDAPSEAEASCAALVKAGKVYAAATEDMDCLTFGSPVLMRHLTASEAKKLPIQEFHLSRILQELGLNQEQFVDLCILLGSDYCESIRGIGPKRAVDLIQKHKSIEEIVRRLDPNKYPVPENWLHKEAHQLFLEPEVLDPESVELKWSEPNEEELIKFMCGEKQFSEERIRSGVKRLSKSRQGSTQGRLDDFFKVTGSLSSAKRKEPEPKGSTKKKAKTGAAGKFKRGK
# Protocol details: qHTS Validation Assay for the Inhibitors of Human Flap endonuclease 1 (FEN1) (AID 488816)
# Run parameters: FEN1 nuclease activity, fluorogenic DNA substrate; series mostly up to 57.1 µM
Calls of active or inactive are those of the source. Calls come from the whole dose curve; as a rule, active = well fitted inhibition curve with a large enough effect; inconclusive = small, poorly fitted or top-dose-only effect; inactive = flat fitted curve, though single readings scatter.
Test readout: outcome

1. CCCCS(=N)(=O)CCC(N)C(=O)O (stereo not drawn)    inactive
2. NC(=O)c1ccc2[nH]ccc2c1    inactive
3. CCN1CCCC1CNC(=O)c1cc(S(N)(=O)=O)ccc1OC (stereo not drawn)    inactive

====

# Test system: HEK293
# Protocol details: Cytotoxic Profiling of Annotated Libraries Using Quantitative High-Throughput Screening (AID 1296008); note: nearly all actives have a fitted effect of over 60% in size
# Run parameters: Five cell lines viability, CellTiter-Glo ATP luminescence, 48-72 h
Records with an inconclusive call do not appear. The source made the active and inactive calls. Calls come from the whole dose curve; as a rule, active = well fitted inhibition curve with a large enough effect; inconclusive = small, poorly fitted or top-dose-only effect; inactive = flat fitted curve, though single readings scatter.
// classify into active, inactive

Below, 5 molecules whose answers are already recorded.
1) COc1cnc(NS(=O)(=O)c2ccc(N)cc2)nc1    inactive
2) CN(Cc1cc(Br)cc(Br)c1N)C1CCCCC1    inactive
3) COCCCOc1cc(C[C@@H](C[C@H](N)[C@@H](O)C[C@H](C(=O)NCC(C)(C)C(N)=O)C(C)C)C(C)C)ccc1OC    inactive
4) CC(C)OC(=O)OCOP(=O)(CO[C@H](C)Cn1cnc2c(N)ncnc21)OCOC(=O)OC(C)C    inactive
5) O=C(O)CCn1c2c(c3ccccc31)C[C@H](NS(=O)(=O)c1ccc(F)cc1)CC2    inactive

Alright, here's another molecule for you.
Assay result, entry C[C@@H]1CN(c2c(F)c(N)c3c(=O)c(C(=O)O)cn(C4CC4)c3c2F)C[C@H](C)N1 — outcome?
inactive

====

# Protocol details: Cell Viability - H-4-II-E (AID 543);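 note: cells exposed to compound for 40 hours; nearly all actives have a fitted effect of over 35% in size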
# Run parameters: H-4-II-E rat hepatoma viability; series mostly up to 92.2 µM
Records with an inconclusive call do not appear. Calls of active or inactive are those of the source. Calls come from the whole dose curve; as a rule, active = well fitted cell-killing curve with a large enough effect; inconclusive = small, poorly fitted or top-dose-only effect; inactive = flat fitted curve, though single readings scatter.
// classify into Y (active), N (inactive)

1. Cc1noc(NS(=O)(=O)c2ccc(N)cc2)c1C    N

Assay result, entry O=C(O)c1cc(=O)[nH]c(=O)[nH]1 — outcome?
N

Assay result, entry COc1ccc2cc3[n+](cc2c1OC)CCc1cc2c(cc1-3)OCO2 — outcome?
N

Assay result, entry CC(=O)[C@H]1CC[C@H]2[C@@H]3CCC4=CC(=O)CC[C@]4(C)[C@H]3CC[C@]12C — outcome?
Y

Assay result, entry Cc1nnc(NS(=O)(=O)c2ccc(N)cc2)s1 — outcome?
N

Assay result, entry CN(C)c1ccc(C(=C2C=CC(=[N+](C)C)C=C2)c2ccc(N(C)C)cc2)cc1 — outcome?
Y

Assay result, entry CCc1cc(C(N)=S)ccn1 — outcome?
N

Assay result, entry CC1=NN(c2ccccc2)C(=O)C1 — outcome?
N

Assay result, entry CC(=O)Oc1ccccc1C(=O)Nc1ncc([N+](=O)[O-])s1 — outcome?
Y

Assay result, entry CC[C@H](C)C(=O)O[C@H]1C[C@@H](C)C=C2C=C[C@H](C)[C@H](CC[C@@H]3C[C@@H](O)CC(=O)O3)[C@H]21 — outcome?
Y

Assay result, entry Cc1cc(NS(=O)(=O)c2ccc(N)cc2)no1 — outcome?
N

Assay result, entry NNC(=O)c1ccncc1 — outcome?
N

Assay result, entry O=C(N[C@H](CO)[C@H](O)c1ccc([N+](=O)[O-])cc1)C(Cl)Cl — outcome?
N
